# targetEntity: human recombinant 5-HT1A receptors (Homo sapiens, UniProt P08908)
# Sequence (P08908 whole entry): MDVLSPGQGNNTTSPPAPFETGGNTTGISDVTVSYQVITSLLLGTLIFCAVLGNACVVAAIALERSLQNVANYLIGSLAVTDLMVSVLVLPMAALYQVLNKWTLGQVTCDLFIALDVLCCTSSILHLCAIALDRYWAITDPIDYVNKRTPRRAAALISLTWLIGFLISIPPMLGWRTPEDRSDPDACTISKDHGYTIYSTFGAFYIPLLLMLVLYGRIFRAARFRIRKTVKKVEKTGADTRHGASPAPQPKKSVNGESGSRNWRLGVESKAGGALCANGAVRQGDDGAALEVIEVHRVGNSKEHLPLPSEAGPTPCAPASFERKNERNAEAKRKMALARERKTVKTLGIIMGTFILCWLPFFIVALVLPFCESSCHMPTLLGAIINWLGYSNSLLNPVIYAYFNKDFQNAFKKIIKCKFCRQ
# assay: GTP gamma[S-35] binding, agonistic action on human recombinant 5-HT1A receptors
# conditionLabel: GTP gamma[S-35] binding, human recombinant 5-HT1A receptors
Counter-ions that a name gives are not always drawn.
readoutLabel: EC50 (nM)

a. Cl.O=C1c2ccccc2S(=O)(=O)N1CCCCNC[C@H]1CCc2ccccc2O1 [Repinotan hydrochloride, reference compound]
b. CC(C)Oc1cccc2c1O[C@@H](CNCCCCN1C(=O)c3ccccc3S1(=O)=O)CC2 [Example 11, hydrochloride]
Q) Dear colleague, could you let me know whether a or b has the lower recorded EC50? Thanks. // caller expects the label of the chosen entry
A) b
(b: 0.19 nM, a: 0.51 nM)
